# measured-on: EPHB1 (UniProt P54762)
# Sequence (P54762 whole entry, looked up): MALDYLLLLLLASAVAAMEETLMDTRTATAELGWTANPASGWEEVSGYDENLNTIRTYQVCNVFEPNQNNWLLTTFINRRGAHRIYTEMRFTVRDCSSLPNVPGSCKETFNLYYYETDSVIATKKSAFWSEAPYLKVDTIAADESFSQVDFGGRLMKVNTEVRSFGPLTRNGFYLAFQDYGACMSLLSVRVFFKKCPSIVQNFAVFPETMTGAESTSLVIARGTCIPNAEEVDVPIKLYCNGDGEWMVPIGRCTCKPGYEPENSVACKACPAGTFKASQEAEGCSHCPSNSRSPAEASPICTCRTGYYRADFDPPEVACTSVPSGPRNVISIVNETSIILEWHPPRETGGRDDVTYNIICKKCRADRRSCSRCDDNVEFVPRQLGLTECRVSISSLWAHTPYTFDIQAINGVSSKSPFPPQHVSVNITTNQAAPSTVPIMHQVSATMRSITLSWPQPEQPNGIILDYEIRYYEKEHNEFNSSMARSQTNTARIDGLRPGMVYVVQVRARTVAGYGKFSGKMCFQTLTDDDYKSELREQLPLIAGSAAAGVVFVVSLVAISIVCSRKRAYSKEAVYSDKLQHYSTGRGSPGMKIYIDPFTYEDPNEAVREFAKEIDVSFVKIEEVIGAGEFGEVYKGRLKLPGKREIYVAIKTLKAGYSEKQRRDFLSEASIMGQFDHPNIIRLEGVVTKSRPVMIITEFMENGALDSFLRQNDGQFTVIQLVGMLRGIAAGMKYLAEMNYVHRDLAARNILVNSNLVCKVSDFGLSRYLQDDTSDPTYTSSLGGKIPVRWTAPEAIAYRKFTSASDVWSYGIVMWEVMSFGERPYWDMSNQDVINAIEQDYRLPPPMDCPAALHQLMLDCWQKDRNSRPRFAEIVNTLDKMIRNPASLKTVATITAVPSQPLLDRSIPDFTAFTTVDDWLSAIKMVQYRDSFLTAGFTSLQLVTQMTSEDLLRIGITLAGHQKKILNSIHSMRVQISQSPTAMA
# experiment-notes: phosphorylation enrichment, bacterial display (enrichment ratio); higher = better substrate or ligand; peptides without Tyr show the background
Rule: 1.0 for phosphorylation enrichment not less than 0.5, 0.0 for anything less.

Field: example entries. Status: answers known.
| macromolecule-sequence | discrete-label |
| --- | --- |
| VKGGAYNPVTV [MCCC2_Y145_Y146N] | 0.0 |
| GVRFTYTIDGS [DCX_Y105_I104T_YF] | 0.0 |
| LSRDVYEEDSY [RET_Y900] | 1.0 |
| YMKEPYIQSRF [HIPK4_Y175_V171M] | 0.0 |
| EAAFVYAISSA [WNT4_Y113] | 1.0 |
| GGRKGYGDFSR [RECQL5_Y478] | 0.0 |
| NFRRGYHLQVL [CD200R1L_Y138_H135R] | 0.0 |
| DKTGEYPVPLI [ACADM_Y73] | 1.0 |

**Q:** Is phosphorylation enrichment at least 0.5? Consider VNQSGYTLIRK [ATP6V0A2_Y688_R685Q]
**A:** 0.0

* * *

# measured-on: SHP2-C SH2
# experiment-notes: SH2 binding enrichment of the phosphorylated peptide, bacterial display (enrichment ratio); higher = better substrate or ligand; peptides without Tyr show the background
readout-type: SH2 binding enrichment
Please give the numeric answer without any surrounding text.

| macromolecule-sequence | measured-result |
| --- | --- |
| LSSLAYSGKDA [FXN_Y205] | 0.885 |
| NTGNYYDLYGG [PTPN11_Y63_D61N] | 0.854 |

**Q:** Indicate its recorded SH2 binding enrichment; the sequence in question is CSDPSYVKQME [CDC5L_Y464_Y459C]
**A:** 0.666

**Q:** Provide only the value of recorded SH2 binding enrichment for GFEEAYSVSKK [PAFAH1B1_Y28_F31S_YF]
**A:** 0.688

* * *

# phosphorylation enrichment annotations
# Test system: c-Src
# experiment-notes: phosphorylation enrichment, bacterial display (enrichment ratio); higher = better substrate or ligand; peptides without Tyr show the background

Below, each entry is followed by its recorded phosphorylation enrichment result.
| macromolecule-sequence | readout-type | measured-result |
| --- | --- | --- |
| VILENYGADID [DNAH5_Y596_L591V] | phosphorylation enrichment | 0.5 |
| IIGNGYFFHVF [MYBPC3_Y1135_R1138H_YF] | phosphorylation enrichment | 0.34 |

**Q:** Dear colleague, please send me the reported phosphorylation enrichment for RAMRRYLERGE [ERBB3_Y680] when you can.
**A:** 0.455

**Q:** Could you please provide reported phosphorylation enrichment for INQGPYENHSV [ATP6V1B1_Y462_R465H] ? Thanks!
**A:** 0.524

**Q:** Quick one: give measured phosphorylation enrichment for SVVVSYEPPEV [TP53_Y220_P219S]
**A:** 0.432

* * *

Reported values of phosphorylation enrichment for individual entries
# measured-on: Jak2 (UniProt O60674)
# Sequence (O60674 whole entry, looked up): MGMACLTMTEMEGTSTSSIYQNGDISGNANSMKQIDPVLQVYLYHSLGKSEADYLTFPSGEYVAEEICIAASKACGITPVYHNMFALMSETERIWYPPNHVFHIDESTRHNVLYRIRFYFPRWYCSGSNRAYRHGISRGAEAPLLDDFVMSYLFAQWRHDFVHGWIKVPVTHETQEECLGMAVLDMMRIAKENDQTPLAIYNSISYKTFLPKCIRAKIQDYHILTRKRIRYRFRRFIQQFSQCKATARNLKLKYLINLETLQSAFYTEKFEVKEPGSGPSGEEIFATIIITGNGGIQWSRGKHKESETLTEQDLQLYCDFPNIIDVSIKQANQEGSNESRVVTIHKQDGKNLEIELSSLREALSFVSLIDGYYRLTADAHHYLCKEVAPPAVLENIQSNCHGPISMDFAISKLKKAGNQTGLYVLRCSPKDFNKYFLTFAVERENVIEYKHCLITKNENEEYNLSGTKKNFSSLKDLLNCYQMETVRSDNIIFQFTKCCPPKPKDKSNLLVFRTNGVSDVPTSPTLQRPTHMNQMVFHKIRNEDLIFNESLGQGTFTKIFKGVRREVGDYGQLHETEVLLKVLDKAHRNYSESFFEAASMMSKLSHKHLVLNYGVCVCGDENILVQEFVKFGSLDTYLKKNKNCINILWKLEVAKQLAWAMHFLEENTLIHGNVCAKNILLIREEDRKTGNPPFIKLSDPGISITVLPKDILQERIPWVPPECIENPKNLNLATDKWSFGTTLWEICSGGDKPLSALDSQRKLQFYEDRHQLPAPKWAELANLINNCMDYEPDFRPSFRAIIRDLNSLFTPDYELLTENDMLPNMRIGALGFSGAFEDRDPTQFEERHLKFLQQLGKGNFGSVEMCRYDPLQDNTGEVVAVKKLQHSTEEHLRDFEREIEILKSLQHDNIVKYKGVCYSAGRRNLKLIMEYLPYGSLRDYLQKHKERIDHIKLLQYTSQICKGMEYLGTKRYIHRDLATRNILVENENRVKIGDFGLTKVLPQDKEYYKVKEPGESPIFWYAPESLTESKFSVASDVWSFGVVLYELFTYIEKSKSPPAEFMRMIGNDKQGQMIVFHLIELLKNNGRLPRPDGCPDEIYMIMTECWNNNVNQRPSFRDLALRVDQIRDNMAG
# experiment-notes: phosphorylation enrichment, bacterial display (enrichment ratio); higher = better substrate or ligand; peptides without Tyr show the background
Please give only the number in your answer, with no unit.

| macromolecule-sequence | measured-result |
| --- | --- |
| IETGKYEILTE | 1.14 |
| DIDKIYVRTGI [PIK3CA_Y355] | 0.878 |
| GHEFIYVDRMQ [PDGFRB_Y581_P584R_YF] | 0.541 |
| VDTRAYLTSAT [MT-CO1_Y304_F305L] | 0.603 |
| CTTIHYDFMCN [TP53_Y234_N235D_YF] | 0.873 |

# input for lookup
**Q:** Tell me its phosphorylation enrichment on Jak2 (UniProt O60674): GFEEAYSVFKK [PAFAH1B1_Y28_YF]
**A:** 0.514

* * *

# measured-on: Grb2 SH2 (UniProt P62993)
# Sequence (P62993 whole entry, looked up): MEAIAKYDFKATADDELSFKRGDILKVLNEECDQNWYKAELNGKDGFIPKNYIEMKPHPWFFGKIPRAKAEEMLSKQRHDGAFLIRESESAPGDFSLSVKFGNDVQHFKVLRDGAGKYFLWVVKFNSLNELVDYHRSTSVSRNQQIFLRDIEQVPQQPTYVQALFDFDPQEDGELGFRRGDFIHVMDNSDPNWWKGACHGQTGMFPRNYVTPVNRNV
# experiment-notes: SH2 binding enrichment of the phosphorylated peptide, bacterial display (enrichment ratio); higher = better substrate or ligand; peptides without Tyr show the background
Bucketed by reported SH2 binding enrichment, buckets being low (below 0.8), intermediate (0.8 to below 1), high (1 or more)

# count of solved cases: 4
| macromolecule-sequence | measured-on | discrete-label |
| --- | --- | --- |
| MCDKEYYSVHN [MET_Y1234_Y1230C] | Grb2 SH2 (UniProt P62993) | high |
| KILGRYFETSS [PAX2_Y72_G76S_YF] | Grb2 SH2 (UniProt P62993) | high |
| RSYSPCDYQPC [TNS1_Y796_Y796C] | Grb2 SH2 (UniProt P62993) | low |
| QEGPEYWDGNT [HLA-B_Y83_R86G] | Grb2 SH2 (UniProt P62993) | intermediate |

**Q:** Could you tell me which band LFIGQYSGKKE [L1CAM_Y1229_S1224L] belongs to?
**A:** intermediate

**Q:** Class? Entry: FRVAGYKTQGG [TIA1_Y383_E384K_YF]
**A:** intermediate

**Q:** Which category does the recorded SH2 binding enrichment put YPIDHYLGKEM [G6PD_Y202_R198P] in?
**A:** low

**Q:** Sort QTEAEYRFIFM [PTPN11_Y511_Q510E_YF] into one of the categories.
**A:** low

* * *

# measured-on: SHP2-C SH2
# experiment-notes: SH2 binding enrichment of the phosphorylated peptide, bacterial display (enrichment ratio); higher = better substrate or ligand; peptides without Tyr show the background
// label = True if SH2 binding enrichment is not less than 0.6, otherwise False

Below, 5 sequences whose answers are already recorded.
| macromolecule-sequence | discrete-label |
| --- | --- |
| PLTKVYVVEGS [ZMPSTE24_Y253] | True |
| VEGIGYDFIPT [CBS_Y308] | True |
| TDECEYDELIV [TGM1_Y136_Y134C] | False |
| KYACSYTPVKA [FLNB_Y708_T703K] | True |
| GVRFTYTIDGS [DCX_Y105_I104T_YF] | False |

**Q:** Record FASTGYGIAIQ [GRIN2B_Y762] ; criterion: SH2 binding enrichment no lower than 0.6. Met?
**A:** True

**Q:** Please check the record REGAKYVSHDA [ASS1_Y113_G117D] and state if its SH2 binding enrichment is at or above 0.6.
**A:** False

**Q:** Does SH2 binding enrichment meet or surpass 0.6 for IIGNGYFFHVF [MYBPC3_Y1135_R1138H_YF] ?
**A:** True

**Q:** Is it the case that ALTDNYMYVVI [HAGH_Y61_L64V] has SH2 binding enrichment reaching or exceeding 0.6?
**A:** True

**Q:** Item VNNTVYGIDAM [EIF3J_Y143_A141T] with SH2 binding enrichment of 0.6 or above?
**A:** False

**Q:** Confirm if SH2 binding enrichment reported for the sequence ARLEFYENEKK [IRS1_Y47_YF] is 0.6 or above.
**A:** True

**Q:** Check the entry AAVDEYLEFRR [FAM221A_Y17_YF] : does SH2 binding enrichment equal or exceed 0.6?
**A:** False

* * *

# measured-on: Fes (UniProt P07332)
# Sequence (P07332 whole entry, looked up): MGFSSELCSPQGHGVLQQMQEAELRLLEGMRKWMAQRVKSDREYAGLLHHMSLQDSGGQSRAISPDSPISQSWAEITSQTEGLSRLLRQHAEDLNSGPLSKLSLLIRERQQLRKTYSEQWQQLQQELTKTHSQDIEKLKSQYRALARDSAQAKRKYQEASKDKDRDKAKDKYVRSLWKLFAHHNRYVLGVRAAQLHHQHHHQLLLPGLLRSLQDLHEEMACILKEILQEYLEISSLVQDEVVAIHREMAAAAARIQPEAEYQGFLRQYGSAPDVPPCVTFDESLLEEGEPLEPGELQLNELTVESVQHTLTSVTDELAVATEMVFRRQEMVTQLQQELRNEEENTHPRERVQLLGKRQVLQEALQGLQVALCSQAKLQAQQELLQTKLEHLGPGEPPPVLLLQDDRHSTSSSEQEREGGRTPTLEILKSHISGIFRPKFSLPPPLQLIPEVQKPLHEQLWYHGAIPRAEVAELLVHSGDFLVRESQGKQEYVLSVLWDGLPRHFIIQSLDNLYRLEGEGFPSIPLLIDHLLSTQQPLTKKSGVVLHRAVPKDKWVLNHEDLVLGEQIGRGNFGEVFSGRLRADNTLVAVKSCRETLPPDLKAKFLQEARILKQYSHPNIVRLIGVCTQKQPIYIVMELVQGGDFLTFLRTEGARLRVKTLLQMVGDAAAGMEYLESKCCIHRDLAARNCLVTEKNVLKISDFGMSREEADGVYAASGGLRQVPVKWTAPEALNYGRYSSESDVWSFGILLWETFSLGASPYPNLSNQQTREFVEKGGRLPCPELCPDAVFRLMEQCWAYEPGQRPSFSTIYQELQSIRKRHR
# experiment-notes: phosphorylation enrichment, bacterial display (enrichment ratio); higher = better substrate or ligand; peptides without Tyr show the background
readout-type: phosphorylation enrichment
The answer should be written as a number, with no unit following it.

Below, 5 sequences whose answers are already recorded.
| macromolecule-sequence | readout-type | measured-result |
| --- | --- | --- |
| GGYTCYSDGKK [PROS1_Y266_C267S] | phosphorylation enrichment | 1.22 |
| DRLASYLDKLR [KRT12_Y139_V143L] | phosphorylation enrichment | 0.894 |
| ARLEFYENEKK [IRS1_Y47_YF] | phosphorylation enrichment | 0.995 |
| GDPTEYFITAI [IGSF22_Y501_S503I_YF] | phosphorylation enrichment | 1.08 |
| LFEDRYLLGPS [ASS1_Y87_T91P_YF] | phosphorylation enrichment | 1.42 |

**Q:** Supply reported phosphorylation enrichment belonging to this sequence: ENRKFYKDLKE [PURA_Y156_M157K_YF]
**A:** 0.699

**Q:** Annotate the sequence CATIHYNFMCN [TP53_Y234_T230A_YF] with its measured phosphorylation enrichment.
**A:** 0.944

**Q:** Consider the sequence PLFRKYWPNHI [GREB1L_Y1560_YF] and give its recorded phosphorylation enrichment.
**A:** 0.994

**Q:** Name the recorded phosphorylation enrichment of the item GARGRYIMGGP [TNK1_Y277_V278I] in your answer.
**A:** 0.547

**Q:** Report phosphorylation enrichment for YLNSSYINIST [IL23R_Y178_T175N]
**A:** 0.799

**Q:** Could you please provide reported phosphorylation enrichment for HDRREYSRFEK [ITGB7_Y758_Y753H] ? Thanks!
**A:** 0.973

**Q:** Supply measured phosphorylation enrichment of IKNFKYGIEEH [GJA1_Y137_K134N] in your reply.
**A:** 0.715

**Q:** Tell me measured phosphorylation enrichment for QTEAEYRFIFM [PTPN11_Y511_Q510E_YF] please.
**A:** 1.32

**Q:** Fill in phosphorylation enrichment for record RGGWAYVLHPT [TRMT61A_Y67_V66A]
**A:** 1.51

**Q:** Please report the measured phosphorylation enrichment for FASTGYGIAIQ [GRIN2B_Y762]
**A:** 0.92

**Q:** Tell us which phosphorylation enrichment value is on record for CSEEMYRLMLQ [RET_Y981]
**A:** 1.41

**Q:** Report phosphorylation enrichment for SFSGEYGGGGG [ZG16_Y30_YF]
**A:** 0.571

**Q:** Name the recorded phosphorylation enrichment of the item MAFDRYVAVCA [OR52J3_Y125] in your answer.
**A:** 1.08

**Q:** Please give measured phosphorylation enrichment of the following entry: YRDMDYRSYPH [RBM10_Y41_R46H]
**A:** 0.64

**Q:** Entry KVPELYEIHTE [BCR_Y554_K558T] needs its phosphorylation enrichment filled in; supply it.
**A:** 0.984

**Q:** For VAHAVYQAVLS [SMG1_Y549] , write its phosphorylation enrichment.
**A:** 0.935

**Q:** Specify measured phosphorylation enrichment for AGQEDYDRLRP [CDC42_Y64] .
**A:** 1.07

**Q:** Give the measured phosphorylation enrichment for FEEDSYVTRSQ [RET_Y905_K907T_YF]
**A:** 1.33

**Q:** // fetch phosphorylation enrichment given entry ATARPYSPYII [LRP5_Y1528_R1529S]
**A:** 0.731

**Q:** Assign phosphorylation enrichment to the following record: TKLKDYYIFNK [CCDC42_Y149_A144T]
**A:** 0.91

**Q:** Look up phosphorylation enrichment of THQNSYQPGRK [CEFIP_Y210] and report it.
**A:** 0.436

**Q:** State its phosphorylation enrichment for this sequence: ISKQEYDEAGP [ACTC1_Y364]
**A:** 1.29

**Q:** Quote phosphorylation enrichment reported for PGIRMYQVQFN [LRFN1_Y454_YF] please.
**A:** 0.863
